# MEASUREMENT_PROTOCOL: binders of probe aFGF2 on microarray, primary screen, stem cell growth factor project, biochemical, small-molecule microarray, fluorescence 635/667 (AID 1067);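 note: measures binding of biotinylated aFGF2 protein to printed compounds on slides; z-score merges feature fluorescence and signal-to-noise across triplicate slides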
# APPLIED_CONDITIONS: higher = more signal
Entries annotated with measured composite z-score

{"columns": ["COMPOUND", "composite z-score"],
 "data": [
  ["COC(=O)[C@@]1(Cc2ccc(F)cc2)[C@H]2c3cc(C(=O)N(C)C)n(Cc4cccc5ccccc45)c3C[C@H]2CN1C(=O)c1ccccc1", 0.398],
  ["C[N+](C)(C)CCCC[C@@H]1NC(=O)[C@H]2C[C@@H](C(=O)NCCCCCN)[C@@H](c3ccc(O)cc3)N2C1=O", -0.0593],
  ["COC(=O)Cn1c(C(=O)N(C)C)cc2c1C[C@H]1CN(C(=O)c3ccccc3)[C@@](Cc3ccccc3)(C(=O)OC)[C@@H]21", -0.0493],
  ["O=C1NC(=O)C2C1C=CC(C(O)C(c1ccccc1)c1ccccc1)N2Nc1ccccn1 (stereo not drawn)", 0.162],
  ["C=CCNC(=O)[C@@H]1[C@H]2C(=O)O[C@H](c3ccccc3)[C@H](c3ccccc3)N2[C@H](c2ccc(OCCO)cc2)[C@@]12C(=O)Nc1ccc(C#CC3=CCCCC3)cc12", -0.0442],
  ["C=CC[C@]1(C(=O)NCC(O)CO)N=C(c2ccc(OCCCO)cc2)O[C@H]1c1ccccc1CN=[N+]=[N-] (stereo partly drawn)", -0.0316],
  ["CCN1C(=O)C2CC(=O)C3C(CN(S(=O)(=O)c4ccc(C)cc4)C3c3ccc(C)cc3)C2C1=O (stereo not drawn)", 0.0174],
  ["CCCCC(=C=CC[C@H](O)c1ccccc1OCCO)CCO", -0.0579]
]}

----------
z-score values by entry
# MEASUREMENT_PROTOCOL: A549 lung cancer cell viability effects, profiling panel, resazurin fluorescence, 24 h, PK04 Diversity Set (AID 1171)
# APPLIED_CONDITIONS: higher = more signal, called active from +8 up or from −8 down
Calls of active or inactive are those of the source.

{"columns": ["STRUCTURE_STRING", "z-score"],
 "data": [
  ["COc1ccc(C#Cc2ccc3c(c2)[C@]2(C(=O)N3)[C@H](c3ccccc3OCCO)N3[C@H](c4ccccc4)[C@H](c4ccccc4)OC(=O)[C@H]3[C@@H]2C(=O)NC[C@H](O)c2ccccc2)cc1", "-1.01 (inactive)"],
  ["CN(C)CCCCNC(=O)[C@H]1C[C@H]2C(=O)N[C@@H](CCCCN(C)C)C(=O)N2[C@H]1c1ccc(O)cc1", "1.2 (inactive)"],
  ["Cc1ccc(S[C@]2(C(=O)NC(C)C)CC(=O)N(Cc3ccccc3)[C@@H]2c2ccc(CO)cc2)cc1", "-0.3 (inactive)"],
  ["C=CCNC(=O)[C@H]1[C@@H]2C(=O)O[C@@H](c3ccccc3)[C@@H](c3ccccc3)N2[C@@H](c2ccc(OCCO)cc2)[C@]12C(=O)Nc1ccc(C#Cc3ccc(OC)cc3)cc12", "-1.04 (inactive)"]
]}

----------
# TARGET_OF_ASSAY: Dihydroorotate dehydrogenase (quinone), mitochondrial (Plasmodium falciparum (isolate 3D7))
# MEASUREMENT_PROTOCOL: PfDHODH enzyme inhibitors, primary screen, biochemical, C-terminal His tag, absorbance 600 nm (AID 1175);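 note: recombinant parasite enzyme with a five histidine tag at its C terminus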
# APPLIED_CONDITIONS: DCIP absorbance 600 nm, higher = more signal, called active from +8 up or from −8 down
Activity calls are given as the source filed them.
Reported composite z-score values for a set of compounds
READOUT_NAME: composite z-score

{"columns": ["COMPOUND", "TEST_VALUE"],
 "data": [
  ["Cc1ccc(S(=O)(=O)N2[C@@H](c3ccccc3)C(C(=O)O)=C[C@H]2C(C)(C)C)cc1", "0.0392 (inactive)"],
  ["Cc1ccc(S[C@]2(C(=O)NC(C)C)CC(=O)N(Cc3ccccc3)[C@@H]2c2ccc(CO)cc2)cc1", "-1.33 (inactive)"],
  ["CCCNC(=O)[C@@]1(Sc2ccc(C)cc2)CC(=O)N(Cc2cc(C(F)(F)F)cc(C(F)(F)F)c2)[C@@H]1c1ccc(CO)cc1", "-0.756 (inactive)"],
  ["O=C1NC(=O)C2C1C=CC(C(O)C(c1ccccc1)c1ccccc1)N2Nc1ccccn1 (centres undefined)", "1.72 (inactive)"]
]}

----------
# Tested on: XIP peptide (Xip251-270) binding
# MEASUREMENT_PROTOCOL: small-molecule binders of XIP peptide, primary screen, biochemical, small-molecule microarray, fluorescence 635/667 nm, 0.1 µg/mL protein (AID 1182)
# APPLIED_CONDITIONS: fluorescent protein binding, 635 nm, higher = more signal, called active from +8 up or from −8 down
The source made the active and inactive calls.

{"columns": ["MOLECULE", "composite z-score"],
 "data": [
  ["O=C1C2C=CC(C(O)C3CC=CCC3)N(Nc3ccc([N+](=O)[O-])cc3)C2C(=O)N1c1ccccc1 (configuration not stated)", "0.524 (inactive)"],
  ["COc1ccc(C#Cc2ccc3c(c2)[C@]2(C(=O)N3)[C@H](c3ccccc3OCCO)N3[C@H](c4ccccc4)[C@H](c4ccccc4)OC(=O)[C@H]3[C@@H]2C(=O)NC[C@H](O)c2ccccc2)cc1", "0.134 (inactive)"],
  ["CCCCC=C[C@@H](NC(=O)C(C)(C)C)c1ccccc1", "1.38 (inactive)"],
  ["C=C(C(=O)CC[C@@H](OC(=O)c1ccccc1-c1ccccc1C(=O)O)c1ccc(CO)o1)C(C)C", "0.525 (inactive)"],
  ["COC(=O)[C@]1(Cc2ccccc2N=[N+]=[N-])N=C(c2ccc(OCCCO)cc2)O[C@@H]1c1ccccc1CN=[N+]=[N-]", "0.11 (inactive)"],
  ["C=CCNC(=O)[C@@H]1[C@H]2C(=O)O[C@H](c3ccccc3)[C@H](c3ccccc3)N2[C@H](c2ccc(OCCO)cc2)[C@@]12C(=O)Nc1ccc(C#CC3=CCCCC3)cc12", "1.45 (inactive)"],
  ["O=C1OCC=C[C@H]2OC34C=CCN(Cn5nnc6ccccc65)C(=O)[C@H]3N(CCO)C(=O)[C@@H]4[C@@H]12 (some centres not stated)", "-0.149 (inactive)"],
  ["CC[C@@H](O[Si](C#C[Si](C(C)C)(C(C)C)C(C)C)(C(C)C)C(C)C)c1cn(Cc2cccc(Cl)c2)nn1", "0.242 (inactive)"],
  ["O=C1O[C@H](c2ccccc2)[C@H](c2ccccc2)N2[C@H]1[C@@H](C(=O)O)[C@]1(C(=O)Nc3ccccc31)[C@H]2c1ccc(OCCO)cc1", "1.13 (inactive)"],
  ["CC(C)N1C(=O)[C@@]2(Cc3ccccc31)c1ccccc1C(=O)N(Cc1ccccc1C(F)(F)F)[C@H]2c1ccc(CO)cc1", "-0.0547 (inactive)"],
  ["CC(C)[Si]1(C(C)C)OCc2cc(-c3ccc(-c4ccc(Cl)c(Cl)c4)o3)nc(-c3ccc(Oc4ccccc4)cc3)c21", "0.146 (inactive)"],
  ["COc1ccc([Si](C)(C)[C@@H]2[C@@H](CC(=O)N(CCO)Cc3ccccc3)O[C@]3(C(=O)N(Cc4cccc(I)c4)c4ccccc43)[C@H]2C)cc1", "0.479 (inactive)"]
]}

----------
# MEASUREMENT_PROTOCOL: binders of probe aFST on microarray, primary screen, stem cell growth factor project, biochemical, small-molecule microarray, fluorescence 635/667 (AID 1086);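 note: score merges 667 nm fluorescence with signal-to-noise of each printed compound spot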
# APPLIED_CONDITIONS: higher = more signal
Listed here are compounds together with their documented composite z-score.

{"columns": ["STRUCTURE_STRING", "composite z-score"],
 "data": [
  ["C#CCN(C(=O)OC(C)(C)C)[C@H](CO)c1ccccc1", 0.115],
  ["O=C1C[C@@](C(=O)NCC(F)(F)F)(c2ccc([N+](=O)[O-])cc2)[C@@H](c2ccc(CO)cc2I)N1CC12CC3CC(CC(C3)C1)C2", 1.08],
  ["COC(=O)[C@@]1(Cc2ccc(F)cc2)[C@H]2c3cc(C(=O)N4CCCC4)n(CCc4c[nH]c5cc(F)ccc45)c3C[C@H]2CN1C(=O)c1ccccc1", 1.69],
  ["CN(C)CCCCCCNC(=O)[C@@H]1C[C@@H]2C(=O)N[C@@H](CCCC[N+](C)(C)C)C(=O)N2[C@@H]1c1cccc(OCCO)c1", -0.516],
  ["COc1c(C)cc(-c2cc3c(c(CCc4ccccc4)n2)[Si](C(C)C)(C(C)C)O[C@H]3c2ccccc2)cc1C", 0.125],
  ["COCCCNC(=O)[C@@]1(CCC(=O)OC(C)(C)C)N=C(c2ccc(OCCCO)cc2)O[C@H]1c1ccccc1", 1.16],
  ["CCCCCCc1nc(Cc2cc(OC)c(OC)c(OC)c2)c(C)c2c1[Si](C(C)C)(C(C)C)OC2", -0.0696]
]}

The measurements presented in this section are drawn from PubChem BioAssay.
